Molecular target: T1, Rb^P T738I (human, UniProt P06400 380-788, T738I)
T1 construct: also called variant 67
T1 sequence (looked up): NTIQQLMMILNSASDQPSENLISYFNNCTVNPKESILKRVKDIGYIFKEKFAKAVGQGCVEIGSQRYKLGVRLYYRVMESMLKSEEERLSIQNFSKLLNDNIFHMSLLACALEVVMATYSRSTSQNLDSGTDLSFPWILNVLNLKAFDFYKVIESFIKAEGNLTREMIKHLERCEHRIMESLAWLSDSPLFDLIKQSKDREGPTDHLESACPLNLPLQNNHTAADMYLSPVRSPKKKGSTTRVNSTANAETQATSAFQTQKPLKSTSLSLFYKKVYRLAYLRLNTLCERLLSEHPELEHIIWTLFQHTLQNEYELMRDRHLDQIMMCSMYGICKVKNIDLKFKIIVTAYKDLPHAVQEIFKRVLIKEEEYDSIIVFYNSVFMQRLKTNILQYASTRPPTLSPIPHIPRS
Assay: fluorescence polarisation; 25 °C; unlabeled Rb^P titrated against 1.5 nM TMR-E2F1^TD or 7.5 nM TMR-E7^LxCxE; 25 mM Tris pH 8.0, 200 mM NaCl, 1 mM DTT, 0.1% Tween-20; 2 min incubation; quadratic fit; apparent Kd for the variants, Kd for WT
Conditions: both partners purified
pKd: −log10 of the molar value. No end group written: not given here. TMR = tetramethyl rhodamine dye
Property: pKd; scope: individual binders

Binder	pKd
{TMR}-GEGIRDLFDCDFGDLTPLD (also called E2F^TD; source: synthetic peptide, bought: GenScript) [TMR-E2F1^TD, peptide of the E2F1 transactivation domain]	7.22
DLYCYEQLN (also: TMR label, position not given here, source: synthetic peptide, bought: GenScript) [TMR-E7^LxCxE, LxCxE peptide of the E7 oncoprotein from HPV]	7.74
